- testedTarget: recombinant human MGAT2 (Homo sapiens (Human))
- Sequence (Q3SYC2 whole entry): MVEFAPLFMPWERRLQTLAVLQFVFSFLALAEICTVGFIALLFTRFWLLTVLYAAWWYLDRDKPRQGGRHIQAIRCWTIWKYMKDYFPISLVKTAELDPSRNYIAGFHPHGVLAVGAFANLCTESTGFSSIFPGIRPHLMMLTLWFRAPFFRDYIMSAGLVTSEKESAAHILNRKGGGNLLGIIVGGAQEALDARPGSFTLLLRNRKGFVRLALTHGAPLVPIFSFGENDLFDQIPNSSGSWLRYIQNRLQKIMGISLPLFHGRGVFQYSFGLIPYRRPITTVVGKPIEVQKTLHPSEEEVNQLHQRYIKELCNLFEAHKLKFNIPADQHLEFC
- assayDetails: Measurement of human MGAT2 inhibitory activity
- Assay type: biochemical
- recordedConditions: read-out: IC50 (concentration exhibiting 50% enzyme inhibition), Table 53
Define the label as satisfied when IC50 is strictly less than 30 nM and as not satisfied in all remaining cases.

Please review the entries below; each comes with its answer.
N#Cc1ccc(-n2nc3c(c2C(=O)NCC(N)=O)C(=O)N[C@@]2(CCc4cc(OCC(F)(F)F)ccc42)C3)nc1 [II-127]: not satisfied
Cc1ccc(-n2nc3c(c2C(=O)NS(C)(=O)=O)C(=O)N[C@@]2(CCc4cc(OCC(F)(F)F)ccc42)C3)nc1 [II-238]: satisfied
N#Cc1ccc(-n2nc3c(c2C(=O)NC2CCNC2=O)C(=O)N[C@@]2(CCc4cc(OCC(F)(F)F)ccc42)C3)nc1 (stereo partly shown) [II-132]: not satisfied
Cc1ccc(-n2nc3c(c2NC(=O)CS(C)(=O)=O)C(=O)N[C@](C)(c2ccc(N4CC(F)(F)C4)cc2F)C3)nc1 [II-177]: satisfied
CS(=O)(=O)CC(=O)Nc1c2c(nn1-c1ccccc1)C[C@]1(CCc3cc(OCC(F)(F)F)ccc31)NC2=O [II-175]: satisfied

Dear colleague, could you confirm whether IC50 of CS(=O)(=O)CC(=O)Nc1c2c(nn1CCCOC(F)(F)F)C[C@@]1(NC2=O)c2ccc(OCC(F)(F)F)cc2CC1(F)F [II-97] falls below 30 nM? Thanks.
satisfied

Dear colleague, could you confirm whether IC50 of O=C1N[C@@]2(CCc3cc(OCC(F)(F)F)ccc32)Cc2nn(CCCOC(F)F)c(C(=O)NS(=O)(=O)C3CC3)c21 [II-262] falls below 30 nM? Thanks.
satisfied
